# Tested on: HT29
# test_details: cells
# Format: cell-based
# applied_conditions: Homo sapiens, HT-29; HT29, 48 hours exposure, SRB; total growth inhibition (cytostatic effect); read-out: TGI
endpoint: IC (TGI) (nM)
Numbers only, in nM.

Answered examples (3):
- COC1=CC[C@@H]([C@@H](C)/C=C(C)/C=C\C=C\C(=O)N[C@H](C(=O)N/C=C\C[C@@H](O)C/C=C(\C)Cl)C(C)(C)C)OC1=O [Compound 30e]: 21.3
- COC1=CC[C@@H]([C@@H](C)/C=C(C)/C=C\C=C/C(=O)N[C@H](C(=O)N/C=C\C[C@H](C/C=C(\C)Cl)O[Si](C)(C)C(C)(C)C)C(C)(C)C)OC1=O [Compound 29a]: 1420
- COC1=CC[C@@H]([C@@H](C)/C=C(C)/C=C\C=C\C(=O)N[C@H](C(=O)N/C=C\C[C@H](C/C=C(\C)Cl)O[Si](C)(C)C(C)(C)C)C(C)(C)C)OC1=O [Compound 29e]: 2210

Okay, now this compound:
Enquiry: What value of IC (TGI) has been reported for the following compound? COC1=CC[C@@H]([C@@H](C)/C=C(C)/C=C\C=C/C(=O)N[C@H](C(N)=O)C(C)(C)C)OC1=O [Compound 7]
Return: 544
